- Experiment Summary: in vitro
- Reported Conditions: mouse, hepatocytes
Property Label: hepatocyte CLint at 2 h, 1 µM

Query: Requested field: hepatocyte CLint at 2 h, 1 µM. Item: C[C@H]1CCN1c1nc(N2CC[C@H](CCC(=O)O)C2)c2c(n1)C(F)(F)CC2
Reply: < 0.96 µL/min/1e6 cells

====

- Experiment Summary: in vitro
- Reported Conditions: rat, hepatocytes
Property Label: hepatocyte CLint at 2 h, 1 µM

Query: Requested field: hepatocyte CLint at 2 h, 1 µM. Item: C[C@H]1CCN1c1nc(N2CC[C@H](CCC(=O)O)C2)c2c(n1)C(F)(F)CC2
Reply: < 0.96 µL/min/1e6 cells

====

- Experiment Summary: in vitro
- Reported Conditions: rhesus monkey, liver microsomes
Property Label: microsomal CLint at 2 h, 1 µM (µL/min/mg)
The answer is to be given in µL/min/mg; state only the numeric part.

Query: Requested field: microsomal CLint at 2 h, 1 µM. Item: C[C@H]1CCN1c1nc(N2CC[C@H](CCC(=O)O)C2)c2c(n1)C(F)(F)CC2
Reply: 10.2

====

- Experiment Summary: Volume of distribution at steady state in Beagle dog at 1 mg/kg, iv administered as single dose measured upto 24 hrs by LC-MS/MS analysis
- Format: ADME, organism-based, Canis lupus familiaris
- Reported Conditions: in vivo, read-out: Vdss
Property Label: Vd (L/kg)
The answer is to be given in L/kg; state only the numeric part.

Query: Requested field: Vd. Item: C[C@H]1CCN1c1nc(N2CC[C@H](CCC(=O)O)C2)c2c(n1)C(F)(F)CC2
Reply: 0.87

====

Sequence of the target: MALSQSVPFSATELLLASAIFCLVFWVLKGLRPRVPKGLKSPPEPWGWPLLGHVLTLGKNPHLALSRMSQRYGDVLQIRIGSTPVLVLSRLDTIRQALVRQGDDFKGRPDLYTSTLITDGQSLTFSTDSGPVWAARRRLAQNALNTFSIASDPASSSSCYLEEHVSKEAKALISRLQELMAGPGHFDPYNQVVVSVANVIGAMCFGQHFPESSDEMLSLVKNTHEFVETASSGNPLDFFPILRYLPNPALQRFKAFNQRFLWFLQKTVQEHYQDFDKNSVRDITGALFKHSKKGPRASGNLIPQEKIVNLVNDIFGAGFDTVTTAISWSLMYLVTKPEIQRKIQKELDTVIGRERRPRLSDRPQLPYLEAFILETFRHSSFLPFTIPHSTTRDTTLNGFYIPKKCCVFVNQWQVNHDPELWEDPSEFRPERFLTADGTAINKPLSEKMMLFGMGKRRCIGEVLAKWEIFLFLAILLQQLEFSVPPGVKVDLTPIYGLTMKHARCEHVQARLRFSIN
Property Label: IC50

Query: Requested field: IC50. Item: C[C@H]1CCN1c1nc(N2CC[C@H](CCC(=O)O)C2)c2c(n1)C(F)(F)CC2
Reply: > 30 µM

====

- Experiment Summary: Metabolic stability in mouse hepatocyte assessed as parent compound remaining at 10 uM measured after 4 hrs by LC-MS/MS analysis
- Type: ADME, cell-based
- Reported Conditions: hepatocytes, read-out: Stability
Property Label: remaining at 4 h, 10 µM
Phrase the answer as number then unit, nothing more needed.

Query: Requested field: remaining at 4 h, 10 µM. Item: C[C@H]1CCN1c1nc(N2CC[C@H](CCC(=O)O)C2)c2c(n1)C(F)(F)CC2
Reply: 96.6%

====

- Experimental Target: Voltage-gated inwardly rectifying potassium channel KCNH2 (Homo sapiens)
- Sequence (Q12809 whole entry): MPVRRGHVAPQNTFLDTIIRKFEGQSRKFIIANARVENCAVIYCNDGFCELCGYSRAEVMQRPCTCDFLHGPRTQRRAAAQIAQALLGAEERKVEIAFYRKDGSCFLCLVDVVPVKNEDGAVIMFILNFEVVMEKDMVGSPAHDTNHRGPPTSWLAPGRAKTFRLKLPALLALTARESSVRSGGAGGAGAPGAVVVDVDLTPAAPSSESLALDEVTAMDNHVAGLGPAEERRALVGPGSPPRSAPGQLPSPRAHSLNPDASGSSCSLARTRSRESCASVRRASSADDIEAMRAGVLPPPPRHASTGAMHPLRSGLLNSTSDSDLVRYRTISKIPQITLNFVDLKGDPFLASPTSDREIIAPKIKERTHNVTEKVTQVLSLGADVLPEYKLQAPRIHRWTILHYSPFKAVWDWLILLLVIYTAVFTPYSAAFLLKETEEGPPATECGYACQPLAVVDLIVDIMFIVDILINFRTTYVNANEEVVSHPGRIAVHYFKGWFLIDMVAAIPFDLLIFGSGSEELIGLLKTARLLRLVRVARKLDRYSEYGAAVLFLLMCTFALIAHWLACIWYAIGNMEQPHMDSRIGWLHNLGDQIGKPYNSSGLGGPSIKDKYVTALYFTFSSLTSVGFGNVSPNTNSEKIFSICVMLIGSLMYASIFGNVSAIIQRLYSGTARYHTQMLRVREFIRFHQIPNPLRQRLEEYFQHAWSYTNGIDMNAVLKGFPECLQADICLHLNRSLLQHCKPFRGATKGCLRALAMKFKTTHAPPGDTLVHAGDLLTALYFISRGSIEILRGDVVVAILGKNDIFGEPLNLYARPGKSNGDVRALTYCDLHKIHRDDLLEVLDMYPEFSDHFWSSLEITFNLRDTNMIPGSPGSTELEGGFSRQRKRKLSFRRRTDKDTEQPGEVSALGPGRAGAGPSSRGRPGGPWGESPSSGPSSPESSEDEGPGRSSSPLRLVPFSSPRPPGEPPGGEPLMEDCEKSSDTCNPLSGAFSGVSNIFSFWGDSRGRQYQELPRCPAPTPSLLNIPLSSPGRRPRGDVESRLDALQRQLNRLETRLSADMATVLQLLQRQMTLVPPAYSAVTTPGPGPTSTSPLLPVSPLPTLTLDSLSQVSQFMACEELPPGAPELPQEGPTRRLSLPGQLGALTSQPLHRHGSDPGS
pIC50: −log10 of the molar value.
Property Label: pIC50

Query: Requested field: pIC50. Item: C[C@H]1CCN1c1nc(N2CC[C@H](CCC(=O)O)C2)c2c(n1)C(F)(F)CC2
Reply: < 4.52

====

- Experiment Summary: MRT (0 to t) in Beagle dog at 5 mg/kg, po administered as single dose measured upto 24 hrs by LC-MS/MS analysis
- Format: ADME, organism-based, Canis lupus familiaris
- Reported Conditions: in vivo
Property Label: MRT last at 24 h (h)
The answer is to be given in h; state only the numeric part.

Query: Requested field: MRT last at 24 h. Item: C[C@H]1CCN1c1nc(N2CC[C@H](CCC(=O)O)C2)c2c(n1)C(F)(F)CC2
Reply: 4.15

====

solubility kinetic overview
- Experiment Summary: physchem

Solved entries:
INSERT INTO results (compound, value_measured) VALUES
  ('C[C@H]1CCN1c1nc(N2C[C@H]3CC[C@H](C(=O)O)[C@H]3C2)cc(C(F)(F)F)c1C#N (racemic)', '230 µM'),
  ('C[C@H]1CCN1c1nc(N2CCC3(CC3C(=O)O)C2)cc(C(F)(F)F)c1C#N (some centres undefined)', '> 1000 µM'),
  ('C[C@H]1CCN1c1nc(N2C[C@@H](CC(=O)O)[C@H](O)C2)cc(C(F)(F)F)c1C#N (racemic)', '889 µM'),
  ('C[C@H]1CCN1c1nc(N2C[C@H]3CC[C@H](C(=O)O)[C@H]3C2)c2c(n1)C(F)(F)CC2 (racemic)', '> 1000 µM');

Query: Requested field: solubility kinetic. Item: C[C@H]1CCN1c1nc(N2CC(CC(=O)O)C(F)(F)C2)cc(C(F)(F)F)c1C#N (some centres undefined)
Reply: > 1000 µM

Query: Proceed to O=C(O)CC[C@H]1CCN(c2nc(N3CC[C@@H]3C(F)(F)F)nc3c2CCC3(F)F)C1
Reply: > 1000 µM

Query: Proceed to C[C@H]1CCN1c1nc(N2CC[C@H](CC(=O)O)C2)c2c(n1)C(F)(F)CC2
Reply: 999 µM

Query: Proceed to C[C@H]1CCN1c1nc(N2CC[C@H](OCC(=O)O)C2)c2c(n1)C(F)(F)CC2
Reply: > 1000 µM

Query: Proceed to C[C@H]1CCN1c1nc(N2CC[C@H](CCC(=O)O)C2)c2c(n1)C(F)(F)CC2
Reply: > 1000 µM

====

- Experiment Summary: Elimination half life in Sprague-Dawley rat at 10 mg/kg, iv administered as single dose measured upto 24 hrs by LC-MS/MS analysis
- Format: ADME, organism-based
- Reported Conditions: in vivo, read-out: beta t1/2 (converted)
Property Label: half-life (h)
The answer is to be given in h; state only the numeric part.

Query: Requested field: half-life. Item: C[C@H]1CCN1c1nc(N2CC[C@H](CCC(=O)O)C2)c2c(n1)C(F)(F)CC2
Reply: 5.82

====

- Experiment Summary: Elimination half life in Beagle dog at 1 mg/kg, iv administered as single dose measured upto 24 hrs by LC-MS/MS analysis
- Assay type: ADME, organism-based, Canis lupus familiaris
- Reported Conditions: in vivo, read-out: beta t1/2 (converted)
Property Label: half-life (h)
The answer is to be given in h; state only the numeric part.

Query: Requested field: half-life. Item: C[C@H]1CCN1c1nc(N2CC[C@H](CCC(=O)O)C2)c2c(n1)C(F)(F)CC2
Reply: 5.1

====

- Experiment Summary: Metabolic stability in dog hepatocyte assessed as parent compound remaining at 10 uM measured after 4 hrs by LC-MS/MS analysis
- Assay type: ADME, cell-based, Canis lupus familiaris
- Reported Conditions: hepatocytes, read-out: Stability
Property Label: remaining at 4 h, 10 µM (%)
The answer is to be given in %; state only the numeric part.

Query: Requested field: remaining at 4 h, 10 µM. Item: C[C@H]1CCN1c1nc(N2CC[C@H](CCC(=O)O)C2)c2c(n1)C(F)(F)CC2
Reply: 97.8

====

- Experiment Summary: Metabolic stability in rat hepatocyte assessed as parent compound remaining at 10 uM measured after 4 hrs by LC-MS/MS analysis
- Format: ADME, cell-based
- Reported Conditions: hepatocytes, read-out: Stability
Property Label: remaining at 4 h, 10 µM (%)
The answer is to be given in %; state only the numeric part.

Query: Requested field: remaining at 4 h, 10 µM. Item: C[C@H]1CCN1c1nc(N2CC[C@H](CCC(=O)O)C2)c2c(n1)C(F)(F)CC2
Reply: 98.2

====

- Experimental Target: Ketohexokinase (Homo sapiens)
- Sequence (P50053 whole entry): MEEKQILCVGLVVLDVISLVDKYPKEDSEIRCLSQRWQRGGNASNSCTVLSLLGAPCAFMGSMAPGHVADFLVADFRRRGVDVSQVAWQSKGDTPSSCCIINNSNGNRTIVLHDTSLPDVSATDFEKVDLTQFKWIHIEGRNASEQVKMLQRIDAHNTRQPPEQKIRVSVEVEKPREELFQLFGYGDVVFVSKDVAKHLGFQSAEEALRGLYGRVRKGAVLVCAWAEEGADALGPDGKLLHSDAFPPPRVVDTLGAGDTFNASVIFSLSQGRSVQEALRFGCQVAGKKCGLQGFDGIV
pIC50 overview
Please note pIC50 is a logarithmic value: minus log10 of concentration in mol/L. Answer with that number alone.

Solved entries:
INSERT INTO results (molecule, experimental_target, property_label, value_measured) VALUES
  ('C[C@H]1CCN1c1nc(N2CC(CC(=O)O)C(F)(F)C2)cc(C(F)(F)F)c1C#N (stereo not given in full)', 'Ketohexokinase (Homo sapiens)', 'pIC50', 6.97),
  ('C[C@H]1CCN1c1nc(N2CC[C@H](CCC(=O)O)C2)c2c(n1)C(F)(F)CC2', 'Ketohexokinase (Homo sapiens)', 'pIC50', 7.45),
  ('C[C@H]1CCN1c1nc(N2CC[C@H](CC(=O)O)C2)c2c(n1)C(F)(F)CC2', 'Ketohexokinase (Homo sapiens)', 'pIC50', 7.31);

Query: API: value(readout= pIC50, system= Ketohexokinase (Homo sapiens), query= O=C(O)CC[C@H]1CCN(c2nc(N3CC[C@@H]3C(F)(F)F)nc3c2CCC3(F)F)C1 )
Reply: 7.59

// data source = ChEMBL document CHEMBL5365534
